Kindly supply the reported % Inhibition values for the records listed here.
- Tested on: DEVDase (caspase-3-like protease)
- protocol_details: Inhibition of DEVDase in cytochrome c/dATP-activated Hela cytosolic extract (method 1)
- Assay type: biochemical
- experimental_setup: compound final concentration 100 μM; 1 mM dATP and 1 μM cytochrome c; DEVD-AFC
Give the number; % is assumed, so skip it.

The compound identified as O=C(Nc1cccc(C(F)(F)F)c1)Nc1cc(Cl)ccc1C(=O)O [Compound f] registered its % Inhibition at 94

Briefly, % Inhibition measured for CN1[C@H]2CC[C@@H]1[C@@H](c1nc(-c3cccs3)no1)[C@@H](c1ccc3ccccc3c1)C2.Cl [c] : 60

Briefly, % Inhibition measured for O=C(Nc1cccc(C(F)(F)F)c1)Nc1ccc(O)cc1O [g] : 74

Record summary for c1ccc(-c2cccc(-n3cnc4ccccc43)c2)cc1 [d, 1-(3-Biphenyl)-benzimidazole] : reported % Inhibition = 58

So, COC(=O)c1cc(NC(=O)Nc2cccc(C(F)(F)F)c2)c(O)cc1[N+](=O)[O-] [a] ? Its % Inhibition was 80

Data point: O=c1onc2cnc3cc([N+](=O)[O-])ccc3n12 [e] ; % Inhibition = 63
